Read-out: Monocyte Chemoattractant Protein-1 (MCP1), CCL2 (gene 6347)
Assay: BSK_CASM3C_MCP1: BioMAP Diversity Plus: CASM3C Assay for Monocyte Chemoattractant Protein-1 (MCP1) Biomarker Activity (AID 2283046);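 also: MCP-1 level quantified by ELISA 24 h after dosing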
Conditions: primary human coronary artery smooth muscle cells; actives raise or lower the signal
The source made the active and inactive calls. The calls were made as follows: active = hit-call score of the fitted dose curve at least 0.9, where 1 is the maximum; inactive = score below 0.9.
# valid calls are yes (1) (active), no (0) (inactive); nothing else

Take a look at these entries with their results.
O=S(=O)(O)CCC(F)(F)C(F)(F)C(F)(F)C(F)(F)C(F)(F)C(F)(F)F    no (0)
CC(=O)c1ccccc1    no (0)
CC(C)c1nnc2ccc(-c3ocnc3-c3cc(F)ccc3F)cn12    no (0)

Exercise: Would you mind telling me which call this test gave O=C1CN(N=Cc2ccc([N+](=O)[O-])o2)C(=O)N1 ?
Solution: no (0)

Exercise: Then this molecule: OCCOCCOCCO
Solution: no (0)

Exercise: Then this molecule: C[Si](C)(C)C(F)(F)C(F)(F)C(F)(F)F
Solution: no (0)

Exercise: Then this molecule: C=CCc1cc(S(=O)(=O)c2ccc(O)c(CC=C)c2)ccc1O
Solution: yes (1)

Exercise: Then this molecule: C[C@@H](Oc1ccc(CNC(=O)c2cccnc2Oc2ccc3c(c2)OCO3)c(F)c1)C(=O)O
Solution: no (0)

Exercise: Then this molecule: O=C(Cl)C(F)(F)C(F)(F)C(F)(F)C(=O)Cl
Solution: no (0)

Exercise: Then this molecule: OC(CCl)CCl
Solution: no (0)

Exercise: Then this molecule: O=S1(=O)CCCO1
Solution: no (0)

Exercise: Then this molecule: COS(C)(=O)=O
Solution: no (0)

Exercise: Then this molecule: O=C(O)c1cccc(C[C@@H]2COc3ccc(OCc4nc5cc(F)ccc5s4)cc3[C@@H]2O)c1
Solution: no (0)
